Listed here are molecules together with their documented melting point.

Structure String	melting point
Cc1c(Cl)cccc1S(=O)(=O)Nc1ncc(Cl)nc1OCc1cccnc1	192 to 193 °C
O=S(=O)(Nc1ncc(Br)nc1OC[C@@H]1CCCN1)c1cccc(Cl)c1Cl	199 to 200 °C

*Q* Fill in the blank: the reported melting point of COC(=O)c1cnc(NS(=O)(=O)c2cccc(Cl)c2Cl)c(OCc2cccnc2)n1 is ____.
*A* 209 to 210 °C

*Q* Need melting point, item COc1nc(NC(=O)CO)cnc1NS(=O)(=O)c1cccc(Cl)c1Cl
*A* 153 to 155 °C

*Q* Reported melting point, molecule COc1nc(Cl)c(Cl)nc1NS(=O)(=O)c1cccc(Cl)c1C : ____
*A* 177 to 178 °C

----------
Some compounds, each annotated with its measured melting point.

*Q* Entry under review: O=S(=O)(Nc1ncc(Br)nc1OCc1cncnc1)c1cccc(Cl)c1Cl . Reported melting point?
*A* 208 to 209 °C

*Q* Fill in: melting point of COc1nc(SCCN)cnc1NS(=O)(=O)c1cccc(Cl)c1Cl is ___
*A* 189 to 190 °C

*Q* Would you kindly share the measured melting point for COc1nc(Cl)cnc1NS(=O)(=O)c1ccccc1Cl ?
*A* 190 to 192 °C

*Q* Need melting point of N#Cc1cnc(NS(=O)(=O)c2cccc(Cl)c2Cl)c(OCc2cccnc2)n1 , thanks.
*A* 222 to 224 °C

*Q* Report melting point for COc1nc(Cl)cnc1NS(=O)(=O)c1ccc(Cl)cc1 please.
*A* 179 to 180 °C

----------
Measurement Label: melting point

Some compounds with known melting point results, for comparison:
Structure String	Test Value
COc1nc(C)c(C)nc1NS(=O)(=O)c1cccc(Cl)c1Cl	165 to 166 °C
Cn1cc(COc2nc(Br)cnc2NS(=O)(=O)c2cccc(Cl)c2Cl)ccc1=O	169 to 170 °C
Cc1cnc(NS(=O)(=O)c2cccc(Cl)c2Cl)c(OCc2ccncc2)n1	183 to 184 °C

*Q* So what does the record say about melting point for COc1nc(CO)cnc1NS(=O)(=O)c1cccc(Cl)c1Cl ?
*A* 160 to 161 °C

*Q* Give the measured melting point of C#CCOc1nc(Cl)cnc1NS(=O)(=O)c1cccc(Cl)c1Cl .
*A* 138 to 139 °C

*Q* Param item = COc1nc(S(C)(=O)=O)cnc1NS(=O)(=O)c1cccc(Cl)c1Cl ; retrieve measured melting point.
*A* 237 to 238 °C

*Q* Tell me the measured melting point of Cc1cnc(NS(=O)(=O)c2cccc(Cl)c2Cl)c(OCc2cc(C)on2)n1 , please.
*A* 155 to 156 °C

----------
melting point values for the molecules below.

Structure String	melting point
COCCOc1nc(OC)c(NS(=O)(=O)c2cccc(Cl)c2Cl)nc1Cl	193 to 194 °C
COc1nc(OCc2cc(C)on2)cnc1NS(=O)(=O)c1cccc(Cl)c1Cl	142 to 143 °C

*Q* For COc1nc(SCCN(C)C)cnc1NS(=O)(=O)c1cccc(Cl)c1Cl , what is its reported melting point?
*A* 117 to 118 °C

----------
Measurement Label: melting point

Below, 4 molecules whose answers are already recorded.
Structure String	melting point
Cc1cnc(NS(=O)(=O)c2cccc(Cl)c2Cl)c(OCc2cccnn2)n1	119 to 124 °C
COc1ncc(Cl)nc1NS(=O)(=O)c1ccccc1Cl	172 to 173 °C
O=S(=O)(Nc1ncc(Cl)nc1OCc1ccncc1)c1cccc(Cl)c1Cl	226 to 229 °C (dec.)
COc1nc(SCCO)cnc1NS(=O)(=O)c1cccc(Cl)c1Cl	180 to 181 °C

*Q* Which melting point value belongs to COc1ccc(COc2nccnc2NS(=O)(=O)c2cccc(Cl)c2Cl)cn1 ?
*A* 187 to 188 °C

*Q* Please report the recorded melting point for COc1nc(Cl)c(Cl)nc1NS(=O)(=O)c1cccc(Cl)c1Cl .
*A* 172 to 173 °C

*Q* Reported melting point for COC(=O)CCSc1cnc(NS(=O)(=O)c2cccc(Cl)c2Cl)c(OC)n1 : what is it?
*A* 146 to 148 °C

*Q* Name the recorded melting point for COc1nc(C)cnc1NS(=O)(=O)c1ccccc1F .
*A* 150 to 152 °C

*Q* Returns the measured melting point for the input molecule. Input: CCCCOc1nc(Cl)cnc1NS(=O)(=O)c1cccc(Cl)c1Cl
*A* 133 to 134 °C

----------
Overview of recorded melting point for various molecules

Examples from the recorded data:
Structure String	melting point
COc1nc(Cl)c(Cl)nc1NS(=O)(=O)c1cccc(Cl)c1	171 to 172 °C
COc1nc(-c2cnccn2)cnc1NS(=O)(=O)c1cccc(Cl)c1Cl	199 to 200 °C
COc1ccc(COc2nc(Cl)cnc2NS(=O)(=O)c2cccc(Cl)c2Cl)cc1	163 to 164 °C

*Q* // melting point lookup, key: O=S(=O)(Nc1nccnc1OCc1cccnc1)c1cccc(Cl)c1Cl
*A* 138 to 139 °C

*Q* Can you look up the measured melting point of COc1nc(Cn2cncn2)cnc1NS(=O)(=O)c1cccc(Cl)c1Cl for me?
*A* 95 to 105 °C

*Q* Query (molecule): COc1nc(N2CCCC2)cnc1NS(=O)(=O)c1cccc(Cl)c1Cl ; field requested: melting point
*A* 179 to 180 °C

*Q* Item O=S(=O)(Nc1nc(Cl)cnc1OCc1ccccn1)c1cccc(Cl)c1Cl has what recorded melting point?
*A* 201 to 203 °C

*Q* Look up melting point for this molecule: COc1ncc(CO)nc1NS(=O)(=O)c1cccc(Cl)c1Cl
*A* 153 to 155 °C

*Q* # lookup: melting point of O=S(=O)(Nc1nccnc1OCc1ccc(CO)cc1)c1cccc(Cl)c1Cl
*A* 160 to 161 °C

----------
Listed compounds paired with reported melting point

Example entries and their recorded answers appear below.
Compound	Measurement Label	Test Value
COc1nc(OCCN)cnc1NS(=O)(=O)c1cccc(Cl)c1Cl	melting point	200 to 205 °C
COc1nc(Br)cnc1NS(=O)(=O)c1ccc(F)c(Cl)c1Cl	melting point	208 to 211 °C
CNCc1cccc(COc2nc(Cl)cnc2NS(=O)(=O)c2cccc(Cl)c2Cl)c1	melting point	167 to 168 °C

Below: the item to evaluate.
*Q* Quick check: melting point of O=S(=O)(Nc1ncc(Br)nc1OCc1cnccn1)c1cccc(Cl)c1Cl ?
*A* 207 to 209 °C

----------
// reported melting point per item

Example results:
Compound	melting point
C#CCOc1cnc(NS(=O)(=O)c2cccc(Cl)c2Cl)c(OC)n1 [Example 198]	110 to 112 °C
O=S(=O)(Nc1ncc(Cl)nc1Cl)c1cccc(Cl)c1Cl [Example 74]	181 to 182 °C

*Q* Find the recorded melting point belonging to COC(=O)COc1cnc(NS(=O)(=O)c2cccc(Cl)c2Cl)c(OC)n1 [Example 199] and report it.
*A* 185 to 190 °C

*Q* Suppose we examine the compound CN(C)Cc1ccc(COc2nc(Cl)cnc2NS(=O)(=O)c2cccc(Cl)c2Cl)o1 [Example 182] ; what melting point value has been reported?
*A* 209 to 210 °C

*Q* melting point lookup needed for COc1nc(OCc2ccc(CN(C)C)o2)cnc1NS(=O)(=O)c1cccc(Cl)c1Cl [Example 175] , thanks.
*A* 114 to 115 °C

----------
Measurement Label: melting point

Structure String	Test Value
CN(C)Cc1ccc(COc2ncc(Cl)nc2NS(=O)(=O)c2cccc(Cl)c2Cl)o1	209 to 210 °C
COc1nc(Cl)cnc1NS(=O)(=O)c1cccc(F)c1Cl	159 to 159.5 °C
O=S(=O)(Nc1ncc(Cl)nc1OCc1ccccn1)c1cccc(Cl)c1Cl	147 to 148 °C

*Q* Can you look up the measured melting point of COC(=O)c1nc(OC)c(NS(=O)(=O)c2cccc(Cl)c2Cl)nc1C for me?
*A* 149 to 150 °C

*Q* Would you mind telling me what melting point value was observed for COc1nc(SCC(N)=O)cnc1NS(=O)(=O)c1cccc(Cl)c1Cl ?
*A* 163 to 164 °C

----------
# Assay Target: human recombinant CCR4 receptor (Homo sapiens, UniProt P51679)
# Sequence (P51679 1-360): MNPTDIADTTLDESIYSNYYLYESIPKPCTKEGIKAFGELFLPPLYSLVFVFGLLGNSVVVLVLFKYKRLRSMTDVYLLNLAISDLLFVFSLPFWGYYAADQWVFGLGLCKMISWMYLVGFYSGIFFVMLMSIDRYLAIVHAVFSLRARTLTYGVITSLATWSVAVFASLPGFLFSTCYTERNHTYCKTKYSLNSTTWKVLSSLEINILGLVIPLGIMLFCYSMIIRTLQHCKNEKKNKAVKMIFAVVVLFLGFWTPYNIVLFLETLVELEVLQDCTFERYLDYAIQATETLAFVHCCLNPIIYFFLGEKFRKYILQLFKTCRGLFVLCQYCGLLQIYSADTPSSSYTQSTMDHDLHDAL
# Test: FMAT whole cell binding assay (FB-MDC binding to cells)
# Condition Description: CHO-K1 cells stably expressing human recombinant CCR4; inhibition of binding of fluorescent FB-MDC, two hours at room temperature
Here the recorded pIC50 is given for each entry.
Please express pIC50 as -log10 of the molar concentration.

Structure String	Assay Target	pIC50
COC(=O)c1nc(OC)c(NS(=O)(=O)c2cccc(Cl)c2Cl)nc1C	human recombinant CCR4 receptor (Homo sapiens, UniProt P51679)	7.20

Could you now look at the following molecule, please?
*Q* Bench note: what pIC50 did COc1nc(CN2CCOCC2)cnc1NS(=O)(=O)c1cccc(Cl)c1Cl show?
*A* 6.20
